Test system: HCI-001 (organoid from a triple-negative breast cancer xenograft)
testDescription: CTG-3D luminescence at 96 h relative to day-0 seeding control (ratio to day 0); higher = more growth / less cytotoxicity; PDxO 3D drug screen, 96 h, CTG-3D normalised to day-0 seeding control.
testConditions: 1 µM; days in culture: 260
CTG-3D luminescence at 96 h by entry:
valueKind: CTG-3D luminescence at 96 h

>  <compoundStructure>
Nc1ccn([C@@H]2O[C@H](CO)[C@@H](O)C2(F)F)c(=O)n1

>  <valueKind>
CTG-3D luminescence at 96 h

>  <valueObserved>
0.617

$$$$
>  <compoundStructure>
NC1(C(=O)N[C@@H](CCO)c2ccc(Cl)cc2)CCN(c2nc[nH]c3nccc2-3)CC1

>  <valueKind>
CTG-3D luminescence at 96 h

>  <valueObserved>
0.652

$$$$
>  <compoundStructure>
CCN(c1cc(C#CCN2CCOCC2)cc(C(=O)NCc2c(C)cc(C)[nH]c2=O)c1C)[C@H]1CC[C@H](N(C)CCOC)CC1

>  <valueKind>
CTG-3D luminescence at 96 h

>  <valueObserved>
1.85

$$$$
>  <compoundStructure>
NC(=O)Nc1cc(-c2cccc(F)c2)sc1C(=O)N[C@H]1CCCNC1

>  <valueKind>
CTG-3D luminescence at 96 h

>  <valueObserved>
0.787

$$$$
>  <compoundStructure>
CCc1c2c(nc3ccc(O)cc13)-c1cc3c(c(=O)n1C2)COC(=O)[C@]3(O)CC

>  <valueKind>
CTG-3D luminescence at 96 h

>  <valueObserved>
0.195

$$$$
>  <compoundStructure>
CC(C)(C(=O)NCC(F)(F)C(F)(F)F)C(=O)N[C@@H]1C(=O)Nc2ccccc2-c2ccccc21

>  <valueKind>
CTG-3D luminescence at 96 h

>  <valueObserved>
1.44

$$$$
>  <compoundStructure>
Cc1cc(Nc2ncc(Cl)c(Nc3ccccc3S(=O)(=O)C(C)C)n2)c(OC(C)C)cc1C1CCNCC1

>  <valueKind>
CTG-3D luminescence at 96 h

>  <valueObserved>
1.21

$$$$
>  <compoundStructure>
CC1(C)CCC(c2ccc(Cl)cc2)=C(CN2CCN(c3ccc(C(=O)NS(=O)(=O)c4ccc(N[C@H](CCN5CCOCC5)CSc5ccccc5)c(S(=O)(=O)C(F)(F)F)c4)cc3)CC2)C1

>  <valueKind>
CTG-3D luminescence at 96 h

>  <valueObserved>
1.58

$$$$

---

Test system: HCI-008 (organoid from a HER2-enriched breast cancer xenograft)
testDescription: CTG-3D luminescence at 96 h relative to day-0 seeding control (ratio to day 0); higher = more growth / less cytotoxicity; PDxO 3D drug screen, 96 h, CTG-3D normalised to day-0 seeding control.
testConditions: 12.5 pM; days in culture: 228
CTG-3D luminescence at 96 h by entry:
valueKind: CTG-3D luminescence at 96 h

>  <molecule>
CNC(=O)c1cccc(-c2ccc3c(N4CCOC[C@@H]4C)nc(N4CCOC[C@@H]4C)nc3n2)c1

>  <valueObserved>
1.54

$$$$
>  <molecule>
CC1(C)CCC(c2ccc(Cl)cc2)=C(CN2CCN(c3ccc(C(=O)NS(=O)(=O)c4ccc(N[C@H](CCN5CCOCC5)CSc5ccccc5)c(S(=O)(=O)C(F)(F)F)c4)cc3)CC2)C1

>  <valueObserved>
1.53

$$$$
>  <molecule>
CCN1CCN(Cc2ccc(Nc3ncc(F)c(-c4cc(F)c5nc(C)n(C(C)C)c5c4)n3)nc2)CC1

>  <valueObserved>
1.42

$$$$
>  <molecule>
C[C@]12CC[C@@H]3c4ccc(O)cc4C[C@@H](CCCCCCCCC[S+]([O-])CCCC(F)(F)C(F)(F)F)[C@H]3[C@@H]1CC[C@@H]2O (some centres undefined)

>  <valueObserved>
1.6

$$$$

---

System: HCI-001
testDescription: CTG-3D luminescence at 96 h relative to day-0 seeding control (ratio to day 0); higher = more growth / less cytotoxicity; PDxO 3D drug screen, 96 h, CTG-3D normalised to day-0 seeding control.
testConditions: 625 fM; days in culture: 269

>  <compoundStructure>
COc1cc2c(Oc3ccc4[nH]c(C)cc4c3F)ncnc2cc1OCCCN1CCCC1

>  <systemName>
HCI-001

>  <CTG-3D luminescence at 96 h>
1.63

$$$$
>  <compoundStructure>
CC(C)n1nc(-c2ccc3oc(N)nc3c2)c2c(N)ncnc21

>  <systemName>
HCI-001

>  <CTG-3D luminescence at 96 h>
1.56

$$$$
>  <compoundStructure>
C/C=C1\NC(=O)[C@H]2CSSCC/C=C/[C@H](CC(=O)N[C@H](C(C)C)C(=O)N2)OC(=O)[C@H](C(C)C)NC1=O

>  <systemName>
HCI-001

>  <CTG-3D luminescence at 96 h>
1.64

$$$$
>  <compoundStructure>
C=CCn1c(=O)c2cnc(Nc3ccc(N4CCN(C)CC4)cc3)nc2n1-c1cccc(C(C)(C)O)n1

>  <systemName>
HCI-001

>  <CTG-3D luminescence at 96 h>
1.65

$$$$

---

Test system: HCI-002 (organoid from a triple-negative breast cancer xenograft)
testDescription: CTG-3D luminescence at 96 h relative to day-0 seeding control (ratio to day 0); higher = more growth / less cytotoxicity; PDxO 3D drug screen, 96 h, CTG-3D normalised to day-0 seeding control.
testConditions: 1 µM; days in culture: 191
valueKind: CTG-3D luminescence at 96 h

>  <compoundStructure>
C/C=C1\NC(=O)[C@H]2CSSCC/C=C/[C@H](CC(=O)N[C@H](C(C)C)C(=O)N2)OC(=O)[C@H](C(C)C)NC1=O

>  <systemName>
HCI-002

>  <valueKind>
CTG-3D luminescence at 96 h

>  <valueObserved>
-0.0937

$$$$
>  <compoundStructure>
Cc1cc(Nc2ncc(Cl)c(Nc3ccccc3S(=O)(=O)C(C)C)n2)c(OC(C)C)cc1C1CCNCC1

>  <systemName>
HCI-002

>  <valueKind>
CTG-3D luminescence at 96 h

>  <valueObserved>
2.23

$$$$
>  <compoundStructure>
COc1cccc2c1C(=O)c1c(O)c3c(c(O)c1C2=O)C[C@@](O)(C(=O)CO)C[C@@H]3O[C@H]1C[C@H](N)[C@H](O)[C@H](C)O1

>  <systemName>
HCI-002

>  <valueKind>
CTG-3D luminescence at 96 h

>  <valueObserved>
1.02

$$$$

---

Test system: HCI-008
testDescription: CTG-3D luminescence at 96 h relative to day-0 seeding control (ratio to day 0); higher = more growth / less cytotoxicity; PDxO 3D drug screen, 96 h, CTG-3D normalised to day-0 seeding control.
testConditions: 0.005 µM; days in culture: 244
valueKind: CTG-3D luminescence at 96 h

>  <compound>
COc1cc2c(Oc3ccc4[nH]c(C)cc4c3F)ncnc2cc1OCCCN1CCCC1

>  <valueKind>
CTG-3D luminescence at 96 h

>  <valueObserved>
1.65

$$$$
>  <compound>
CCN(c1cc(C#CCN2CCOCC2)cc(C(=O)NCc2c(C)cc(C)[nH]c2=O)c1C)[C@H]1CC[C@H](N(C)CCOC)CC1

>  <valueKind>
CTG-3D luminescence at 96 h

>  <valueObserved>
1.81

$$$$
>  <compound>
CNC(=O)c1cccc(-c2ccc3c(N4CCOC[C@@H]4C)nc(N4CCOC[C@@H]4C)nc3n2)c1

>  <valueKind>
CTG-3D luminescence at 96 h

>  <valueObserved>
2.19

$$$$
>  <compound>
C[C@@H]1COCCN1c1cc(C2([S@](C)(=N)=O)CC2)nc(-c2cc[nH]c3nccc2-3)n1

>  <valueKind>
CTG-3D luminescence at 96 h

>  <valueObserved>
2.05

$$$$
>  <compound>
CC1(C)CCC(c2ccc(Cl)cc2)=C(CN2CCN(c3ccc(C(=O)NS(=O)(=O)c4ccc(N[C@H](CCN5CCOCC5)CSc5ccccc5)c(S(=O)(=O)C(F)(F)F)c4)cc3)CC2)C1

>  <valueKind>
CTG-3D luminescence at 96 h

>  <valueObserved>
1.94

$$$$
>  <compound>
C[C@H](NC(=O)CCC(F)(F)F)C(=O)N[C@@H]1C(=O)N(CCO)c2ncccc2-c2ccccc21

>  <valueKind>
CTG-3D luminescence at 96 h

>  <valueObserved>
1.55

$$$$
>  <compound>
C[C@]12CC[C@@H]3c4ccc(O)cc4C[C@@H](CCCCCCCCC[S+]([O-])CCCC(F)(F)C(F)(F)F)[C@H]3[C@@H]1CC[C@@H]2O (some centres undefined)

>  <valueKind>
CTG-3D luminescence at 96 h

>  <valueObserved>
1.94

$$$$
>  <compound>
Cc1cc(Nc2ncc(Cl)c(Nc3ccccc3S(=O)(=O)C(C)C)n2)c(OC(C)C)cc1C1CCNCC1

>  <valueKind>
CTG-3D luminescence at 96 h

>  <valueObserved>
1.85

$$$$
>  <compound>
Cc1nc(-c2cn3c(n2)-c2ccc(-c4cnn(C(C)(C)C(N)=O)c4)cc2OCC3)n(C(C)C)n1

>  <valueKind>
CTG-3D luminescence at 96 h

>  <valueObserved>
1.92

$$$$
